Would you mind telling me the reported inhibition of each entry?
- tested_on: dTDP-4-dehydrorhamnose reductase (Mycobacterium tuberculosis (strain ATCC 25618 / H37Rv)) + dTDP-4-dehydrorhamnose 3,5-epimerase (Mycobacterium tuberculosis (strain ATCC 25618 / H37Rv)) (UniProt P9WH09+P9WH11)
- Sequence (P9WH09 whole entry, looked up): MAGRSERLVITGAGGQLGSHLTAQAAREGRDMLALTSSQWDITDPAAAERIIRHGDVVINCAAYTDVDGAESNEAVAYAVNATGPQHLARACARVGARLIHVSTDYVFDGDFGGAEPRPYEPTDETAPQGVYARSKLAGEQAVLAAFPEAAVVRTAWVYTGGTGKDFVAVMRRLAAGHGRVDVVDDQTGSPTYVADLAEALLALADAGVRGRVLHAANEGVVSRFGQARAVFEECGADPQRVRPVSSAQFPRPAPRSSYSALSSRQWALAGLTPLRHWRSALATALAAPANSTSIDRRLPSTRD
- Sequence (P9WH11 whole entry, looked up): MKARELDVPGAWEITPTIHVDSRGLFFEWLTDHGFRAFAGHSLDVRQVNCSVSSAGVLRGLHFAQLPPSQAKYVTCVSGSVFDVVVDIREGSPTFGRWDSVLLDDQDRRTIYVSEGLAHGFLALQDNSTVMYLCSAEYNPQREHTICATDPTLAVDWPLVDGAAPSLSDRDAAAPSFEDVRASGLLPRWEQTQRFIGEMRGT
- procedure_details: M. tuberculosis RmlC/RmlD coupled enzyme inhibitors, primary screen, biochemical, compound mixtures, 384-well, from 1536-well plates (AID 1533)
- assay_context: RmlC+RmlD coupled enzyme assay, percent inhibition; primary screen in compound mixtures; at 3.6 µM; stronger effect = higher value
In all, about 160,000 compounds went through this assay and about 45 (0.03%) were called active. The sample as a whole holds a higher share of actives than the screen did.
Answers are plain numbers, in %.

// known answers, use as guide
Cc1cc(C)c(NC(=O)CN2C(=O)NC(Cc3ccccc3)C2=O)c(C)c1 (stereo not given)	43.2
CN(C)c1ccc(NC(=O)CSc2n[nH]c(-c3ccco3)n2)cc1	-3.13
COc1ccc(C)cc1NC(=O)c1ccc(-c2ccc(C(C)=O)cc2)o1	6.7
O=C(CCS(=O)(=O)c1ccccc1Cl)Nc1ccc(S(=O)(=O)Nc2ncccn2)cc1	10
C/C(=N/NC(=O)CC(=O)N/N=C(\C)c1ccc([N+](=O)[O-])cc1)c1ccc([N+](=O)[O-])cc1	11.2
COc1ccc(NS(=O)(=O)c2ccc(N3CCOCC3)c(NC(=O)c3ccccc3Br)c2)cc1	-4.87

Provide reported inhibition for each item, in the same order as listed.
1. O=C(COC(=O)c1ccc(Cl)nc1)NCc1cccs1
2. CCC(O)C1CCN(Cc2cn(-c3ccc(OC)cc3)nc2-c2cccc(F)c2)CC1 (stereo not given)
3. Cc1ccc(OCC(=O)Nc2nnc(-c3ccco3)s2)cc1
4. Fc1cccc2ncnc(OCc3ccccc3)c12

-9.13
-7.8
-5.61
3.36

* * *

- tested_on: dTDP-4-dehydrorhamnose reductase (Mycobacterium tuberculosis (strain ATCC 25618 / H37Rv)) + dTDP-4-dehydrorhamnose 3,5-epimerase (Mycobacterium tuberculosis (strain ATCC 25618 / H37Rv)) (UniProt P9WH09+P9WH11)
- procedure_details: M. tuberculosis RmlC/RmlD coupled enzyme inhibitors, primary screen, biochemical, compound mixtures, 384-well, from 1536-well plates (AID 1533)
- assay_context: RmlC+RmlD coupled enzyme assay, percent inhibition; primary screen in compound mixtures; measured here: mean retest inhibition; at 5.5 µM; stronger effect = higher value
The whole screen tested about 160,000 compounds, of which about 45 (0.03%) were called active. Shown is part of a subset that was picked to be rich in actives.
property_label: inhibition (%)
Numbers only, in %.

Please give inhibition for each item listed below.
1. O=C(NCc1ccc(F)cc1)C1CCC(CNc2c(N3CCOCC3)c(=O)c2=O)CC1 (stereo not drawn)
2. Cc1cc(Nc2ccc(N3CCOCC3)cc2)c2cccc(C)c2n1
3. Cc1ccc(CSc2nc3[nH]ncc3c(=O)[nH]2)cc1
4. CC(C)=C(NC(=O)c1ccccc1)C(=O)N/N=C(\C)c1ccccc1O
5. COc1ccccc1P(=O)(c1ccccc1)c1ccccc1NC(C)=O (stereo not drawn)
6. Cc1cc(C)c(NC(=O)CN2C(=O)NC(Cc3ccccc3)C2=O)c(C)c1 (stereo not drawn)

[-8.27, -6.33, 4.96, 31.3, -18.2, 7.39]

Please report inhibition for every entry that follows.
1. COc1ccc(OCC(O)CNCCNc2nccc(C(F)(F)F)n2)cc1 (stereo not drawn)
2. Cc1ccc(NC(=O)/C(=C\c2ccccc2)NC(=O)c2ccco2)cc1

1: 10.5; 2: 3.08
